target.desc: T1, human 4-1BB, full length, on transfected cells (human, UniProt Q07011 24-255)
T1 construct: whole, on cells; also called CHOK1-h4-1BB
measurement.protocol: FACS, CHOK1-h4-1BB cells; Ab 0.016 ug/ml
Entry flag: Y if average fluorescence intensity reaches 60 MFI; N if it does not.

Record excerpt, results attached:
In: Threshold query (average fluorescence intensity >= 60 MFI) on 170D7F2 (antibody, V domains shown) VH: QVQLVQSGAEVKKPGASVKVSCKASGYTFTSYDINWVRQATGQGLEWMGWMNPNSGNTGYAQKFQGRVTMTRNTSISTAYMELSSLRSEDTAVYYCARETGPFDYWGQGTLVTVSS VL: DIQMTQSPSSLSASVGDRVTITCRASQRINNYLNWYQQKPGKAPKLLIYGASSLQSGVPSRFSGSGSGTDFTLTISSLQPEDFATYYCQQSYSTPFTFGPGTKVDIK
Out: N

In: Threshold query (average fluorescence intensity >= 60 MFI) on 100F3C4 (antibody, V domains shown) VH: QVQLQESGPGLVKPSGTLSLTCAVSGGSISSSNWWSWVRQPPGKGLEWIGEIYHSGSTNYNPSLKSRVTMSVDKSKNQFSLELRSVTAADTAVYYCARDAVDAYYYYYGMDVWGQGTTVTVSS VL: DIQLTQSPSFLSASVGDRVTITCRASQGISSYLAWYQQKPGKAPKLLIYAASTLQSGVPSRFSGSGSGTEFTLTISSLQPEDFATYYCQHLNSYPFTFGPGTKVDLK
Out: N

In: Threshold query (average fluorescence intensity >= 60 MFI) on 172E3E3 (antibody, V domains shown) VH: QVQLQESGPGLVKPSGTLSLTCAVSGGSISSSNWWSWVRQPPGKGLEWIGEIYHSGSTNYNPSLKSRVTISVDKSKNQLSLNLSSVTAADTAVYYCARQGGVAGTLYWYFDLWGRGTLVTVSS VL: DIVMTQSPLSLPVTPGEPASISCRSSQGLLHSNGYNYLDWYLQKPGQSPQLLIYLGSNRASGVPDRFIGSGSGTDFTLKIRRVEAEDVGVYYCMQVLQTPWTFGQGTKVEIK
Out: N

Further cases:
In: Threshold query (average fluorescence intensity >= 60 MFI) on 57B3D10 (antibody, V domains shown, also called 4-1BB fully human antibody 57B3D10) VH: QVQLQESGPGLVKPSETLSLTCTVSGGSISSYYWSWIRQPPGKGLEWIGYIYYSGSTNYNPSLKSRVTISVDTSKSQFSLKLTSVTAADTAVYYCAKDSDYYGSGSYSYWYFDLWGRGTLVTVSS VL: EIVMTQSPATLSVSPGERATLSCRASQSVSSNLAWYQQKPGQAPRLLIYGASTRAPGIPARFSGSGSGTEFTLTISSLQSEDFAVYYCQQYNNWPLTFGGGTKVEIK
Out: Y
